Measured values drawn from patent US8148391B2 for this set.

- target.of.assay: c-Met (cytoplasmic domain) (Homo sapiens, UniProt P08581)
- Construct: 10 ng/mL c-Met (cytoplasmic domain, Invitrogen Corporation #PV3143); purchased Invitrogen Corporation PV3143
- Sequence (P08581 956-1390 limits assumed): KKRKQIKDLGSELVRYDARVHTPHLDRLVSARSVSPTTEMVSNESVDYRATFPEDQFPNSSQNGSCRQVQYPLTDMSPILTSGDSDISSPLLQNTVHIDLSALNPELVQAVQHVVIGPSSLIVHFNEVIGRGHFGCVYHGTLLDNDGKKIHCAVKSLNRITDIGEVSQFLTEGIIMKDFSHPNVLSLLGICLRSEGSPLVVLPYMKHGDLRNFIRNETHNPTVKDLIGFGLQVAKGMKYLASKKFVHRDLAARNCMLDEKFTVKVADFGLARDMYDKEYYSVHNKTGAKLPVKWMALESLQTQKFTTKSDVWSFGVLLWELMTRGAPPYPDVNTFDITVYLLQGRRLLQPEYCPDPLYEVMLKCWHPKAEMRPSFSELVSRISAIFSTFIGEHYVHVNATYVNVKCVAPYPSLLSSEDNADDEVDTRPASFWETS
- test.details: c-Met Kinase Assay (same methods as for ALK, with modifications)
- Assay type: biochemical
- condition.details: cMet Activity (c-Met kinase inhibition, IC50 class), 1 μM ATP (Km level), 10 ng/mL c-Met

{"compound": "COc1c(Nc2ncc(Cl)c(N[C@H]3[C@@H](C(N)=O)[C@@H]4C=C[C@H]3C4)n2)ccc2c1CC(N1CCOCC1)CCC2 (mixture of isomers)", "IC50": "> 10 µM"}

* * *

- target.of.assay: c-Met (cytoplasmic domain) (Homo sapiens, UniProt P08581)
- Construct: 10 ng/mL c-Met (cytoplasmic domain, Invitrogen Corporation #PV3143); purchased Invitrogen Corporation PV3143
- test.details: c-Met Kinase Assay (same methods as for ALK, with modifications)
- Type: biochemical
- condition.details: 1 μM ATP (Km level); read-out: cMet Activity (c-Met Kinase Inhibition, IC50)
measure.name: IC50

{"molecule": "CCN1C(=O)CCCc2c1ccc(Nc1ncc(Cl)c(NC3C4C=CC(C4)C3C(=O)N(C)C)n1)c2OC (centres unmarked)", "measure.name": "IC50", "result": "> 10 µM"}
{"molecule": "COc1c(Nc2ncc(Cl)c(Nc3ccccc3S(=O)(=O)N3CCC(O)C3)n2)ccc2c1CCC(NCCO)CC2 (centres unmarked)", "measure.name": "IC50", "result": "0.1 to 1 µM"}
{"molecule": "COc1cc2c(cc1Nc1ncc(Cl)c(Nc3ccc(N4CC5CC4CO5)cc3OC)n1)CCN(CC(=O)N(C)C)CC2 (centres unmarked)", "measure.name": "IC50", "result": "> 10 µM"}
{"molecule": "CNC(=O)c1cccc(F)c1Nc1nc(Nc2ccc3c(c2)CCC(N2CCN(C)CC2)CC3)ncc1Cl (racemic)", "measure.name": "IC50", "result": "< 0.1 µM"}
{"molecule": "COc1cc2c(cc1Nc1ncc(Cl)c(Nc3ccccc3S(=O)(=O)N3CC[C@H](N(C)C)C3)n1)CCN(CC(=O)N(C)C)CC2", "measure.name": "IC50", "result": "> 10 µM"}
{"molecule": "CNC(=O)c1ccccc1Nc1nc(Nc2ccc3c(c2)CN(CCOC(C)=O)CCS3)ncc1Cl", "measure.name": "IC50", "result": "< 0.1 µM"}
{"molecule": "CCN1CC(=O)N(C)c2cc(Nc3ncc(Cl)c(N[C@H]4[C@@H](C(N)=O)[C@@H]5C=C[C@H]4C5)n3)c(OC)cc2C1", "measure.name": "IC50", "result": "> 10 µM"}
{"molecule": "CN1CCN(C)c2c(Nc3ncc(Cl)c(N[C@@H]4CCCC[C@H]4NS(C)(=O)=O)n3)cccc2C1=O", "measure.name": "IC50", "result": "> 10 µM"}
{"molecule": "CCNC(=O)c1ccccc1Nc1nc(Nc2ccc3c(c2)CCC(N2CCOCC2)CC3)ncc1Cl (centres unmarked)", "measure.name": "IC50", "result": "< 0.1 µM"}
{"molecule": "CNC(=O)c1cccc(F)c1Nc1nc(Nc2ccc3c(c2)CCN(C(=O)C2COCCO2)CC3)ncc1Cl (centres unmarked)", "measure.name": "IC50", "result": "< 0.1 µM"}
{"molecule": "COc1c(Nc2ncc(Cl)c(N[C@@H]3CCCC[C@H]3NS(C)(=O)=O)n2)ccc2c1CCCC(N1CCOCC1)C2 (some centres unmarked)", "measure.name": "IC50", "result": "> 10 µM"}
{"molecule": "COc1c(Nc2ncc(Cl)c(Nc3ccccc3-n3cccn3)n2)ccc2c1CCC(N1CCOCC1)CC2 (centres unmarked)", "measure.name": "IC50", "result": "1 to 10 µM"}
{"molecule": "COCCN1CCc2ccc(Nc3ncc(Cl)c(Nc4cc(C)n[nH]4)n3)cc2CC1", "measure.name": "IC50", "result": "1 to 10 µM"}
{"molecule": "COCCNC1CCc2cc(Nc3ncc(Cl)c(N[C@@H]4CCCC[C@H]4NS(C)(=O)=O)n3)c(OC)cc2CC1 (some centres unmarked) [Example 895]", "measure.name": "IC50", "result": "> 10 µM"}
{"molecule": "Cc1cccnc1-c1ccccc1Nc1nc(Nc2ccc3c(c2)CCC(NCC(F)(F)F)CC3)ncc1Cl (centres unmarked)", "measure.name": "IC50", "result": "> 10 µM"}
{"molecule": "COc1cc2c(cc1Nc1ncc(F)c(Nc3ccc(N4CCN(C)CC4)cc3OC)n1)CCN(CCS(C)(=O)=O)CC2", "measure.name": "IC50", "result": "> 10 µM"}
{"molecule": "COc1cc2c(cc1Nc1ncc(Cl)c(Nc3ccc(C)cc3S(=O)(=O)N(C)C)n1)CCN(CC(=O)N(C)C)CC2", "measure.name": "IC50", "result": "> 10 µM"}
{"molecule": "COc1c(Nc2ncc(Cl)c(N[C@H]3[C@@H](C(N)=O)[C@@H]4C=C[C@H]3C4)n2)ccc2c1CCC(NCC(F)(F)F)CC2 (some centres unmarked)", "measure.name": "IC50", "result": "> 10 µM"}
{"molecule": "CN1CCN(C[C@@H](O)C(F)(F)F)Cc2cc(OCC(F)(F)F)c(Nc3ncc(Cl)c(N[C@@H]4CCCC[C@H]4NS(C)(=O)=O)n3)cc21", "measure.name": "IC50", "result": "> 10 µM"}
{"molecule": "COc1c(Nc2ncc(Cl)c(Nc3ccccc3-n3cccn3)n2)ccc2c1CCC(NCC(F)(F)F)CC2 (centres unmarked)", "measure.name": "IC50", "result": "> 10 µM"}
{"molecule": "CNC(=O)c1cccc(Nc2nc(Nc3ccc4c(c3)C(C)(C)CCC(=O)N4C)ncc2Cl)c1", "measure.name": "IC50", "result": "1 to 10 µM"}
{"molecule": "CCNC(=O)c1ccccc1Nc1nc(Nc2ccc3c(c2)N(CC)CCN(CC)C3)ncc1Cl", "measure.name": "IC50", "result": "< 0.1 µM"}
{"molecule": "CNC(=O)c1ccccc1Nc1nc(Nc2ccc3c(c2)CCC(N2CCOCC2)CC3)ncc1C(F)(F)F (centres unmarked)", "measure.name": "IC50", "result": "< 0.1 µM"}
{"molecule": "CCNC(=O)c1cccc(F)c1Nc1nc(Nc2cccc3c2OCCCC3(C)C)ncc1Cl", "measure.name": "IC50", "result": "> 10 µM"}
{"molecule": "CCN1C(=O)CCCc2c1ccc(Nc1ncc(Cl)c(Nc3ccccc3-c3nccn3C)n1)c2OC", "measure.name": "IC50", "result": "> 10 µM"}
{"molecule": "COCCN1CCc2cc(Nc3ncc(Cl)c(NC4C5C=CC(C5)C4C(=O)NC(C)C)n3)c(OC)cc2CC1 (centres unmarked)", "measure.name": "IC50", "result": "> 10 µM"}
{"molecule": "COc1ccc(Nc2nc(Nc3cc4c(cc3OC)CCN(CC(=O)N(C)C)CC4)ncc2Cl)c(-n2cccn2)c1", "measure.name": "IC50", "result": "> 10 µM"}
{"molecule": "CCN1CCN(CC)c2cc(Nc3ncc(Cl)c(N[C@@H]4[C@H](C(N)=O)[C@H]5C=C[C@@H]4C5)n3)ccc2C1", "measure.name": "IC50", "result": "1 to 10 µM"}
{"molecule": "CNC(=O)c1ccccc1Nc1nc(Nc2ccc3c(c2)CCCC(=O)N3CCOC)ncc1C(F)(F)F", "measure.name": "IC50", "result": "< 0.1 µM"}

* * *

- target.of.assay: baculovirus-expressed ALK (Homo sapiens, UniProt Q9UM73)
- Construct: host or cells: baculovirus expression system
- Sequence (Q9UM73 19-1620): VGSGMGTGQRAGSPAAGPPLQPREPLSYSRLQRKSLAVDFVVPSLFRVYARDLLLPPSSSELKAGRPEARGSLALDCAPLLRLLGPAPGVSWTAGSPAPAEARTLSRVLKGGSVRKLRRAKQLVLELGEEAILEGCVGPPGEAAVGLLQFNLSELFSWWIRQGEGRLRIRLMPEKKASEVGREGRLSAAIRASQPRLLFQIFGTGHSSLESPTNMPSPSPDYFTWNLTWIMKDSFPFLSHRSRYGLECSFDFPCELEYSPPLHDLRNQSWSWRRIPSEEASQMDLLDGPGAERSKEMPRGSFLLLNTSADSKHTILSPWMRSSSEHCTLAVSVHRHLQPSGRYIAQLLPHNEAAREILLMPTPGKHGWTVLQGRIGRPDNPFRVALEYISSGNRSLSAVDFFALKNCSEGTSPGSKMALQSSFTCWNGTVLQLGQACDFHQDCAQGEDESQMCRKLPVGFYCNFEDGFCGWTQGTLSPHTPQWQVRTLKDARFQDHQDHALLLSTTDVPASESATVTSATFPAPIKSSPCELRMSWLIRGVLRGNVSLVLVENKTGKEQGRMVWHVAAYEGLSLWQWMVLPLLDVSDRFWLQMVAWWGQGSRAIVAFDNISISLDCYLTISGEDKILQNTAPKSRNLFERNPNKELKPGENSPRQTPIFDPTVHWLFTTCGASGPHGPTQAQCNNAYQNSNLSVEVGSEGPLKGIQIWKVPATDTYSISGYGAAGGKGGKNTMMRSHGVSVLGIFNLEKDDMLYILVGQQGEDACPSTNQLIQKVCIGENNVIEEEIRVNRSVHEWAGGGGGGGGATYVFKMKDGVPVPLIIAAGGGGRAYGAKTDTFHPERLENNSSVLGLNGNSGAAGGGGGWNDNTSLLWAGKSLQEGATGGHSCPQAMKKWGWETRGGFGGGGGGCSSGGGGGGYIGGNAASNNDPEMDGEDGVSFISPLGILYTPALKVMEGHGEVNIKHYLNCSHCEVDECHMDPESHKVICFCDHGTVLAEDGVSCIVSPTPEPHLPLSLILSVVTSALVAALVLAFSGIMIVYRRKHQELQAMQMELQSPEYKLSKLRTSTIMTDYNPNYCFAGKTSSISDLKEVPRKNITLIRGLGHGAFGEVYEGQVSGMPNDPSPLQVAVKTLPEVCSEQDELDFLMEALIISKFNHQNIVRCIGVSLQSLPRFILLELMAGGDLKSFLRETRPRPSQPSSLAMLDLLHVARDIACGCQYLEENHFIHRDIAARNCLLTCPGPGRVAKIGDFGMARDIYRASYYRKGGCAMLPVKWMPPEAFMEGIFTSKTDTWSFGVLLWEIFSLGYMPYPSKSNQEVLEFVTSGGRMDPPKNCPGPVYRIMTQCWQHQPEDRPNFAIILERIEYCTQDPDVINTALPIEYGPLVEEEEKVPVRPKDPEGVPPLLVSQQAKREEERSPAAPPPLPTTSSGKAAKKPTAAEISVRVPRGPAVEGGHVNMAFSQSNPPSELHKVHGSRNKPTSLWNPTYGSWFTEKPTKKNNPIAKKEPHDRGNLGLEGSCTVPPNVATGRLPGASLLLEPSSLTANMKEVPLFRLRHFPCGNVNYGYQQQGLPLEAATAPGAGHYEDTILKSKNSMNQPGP
- test.details: ALK Kinase Assay (ELISA-type, time-resolved fluorescence)
- Type: biochemical
- condition.details: 1 μM ATP (Km level), 30 ng/ml ALK, 37° C., 15 minutes; read-out: ALK Activity (ALK kinase inhibition, IC50 class)
- Description: Briefly, each 96-well plate was coated with 100 μL/well of 10 μg/mL substrate (phospholipase C-γ) in Tris-buffered saline (TBS). […] The reaction was initiated by adding enzyme (30 ng/ml ALK) and was allowed to proceed at 37° C. for 15 minutes. Detection of the phosphorylated product was performed by adding 100 μl/well of Eu-N1 labeled PT66 antibody (Perkin Elmer # AD0041). Data analysis was performed using ActivityBase (IDBS, Guilford, UK). […]
pIC50: −log10 of the molar value.
measure.name: pIC50

{"compound": "CCN1C(=O)[C@H](N(C)C)CCc2c1ccc(Nc1ncc(Cl)c(N[C@H]3[C@@H](C(N)=O)[C@@H]4C=C[C@H]3C4)n1)c2OC (single isomer, unassigned) [Example 1346]", "result": "> 7.00"}
{"compound": "COc1cc2c(cc1Nc1ncc(Cl)c(Nc3ccccc3S(=O)(=O)N(C)C)n1)CCN(C(=O)C(C)(C)N)CC2 [Example 1207]", "result": "> 7.00"}
{"compound": "CNC(=O)c1sccc1Nc1nc(Nc2ccc3c(c2)OCCCN3C(=O)OCCCN(C)C)ncc1Cl [Example 1428]", "result": "6.00 to 7.00"}
{"compound": "COCCN1CCc2ccc(Nc3ncc(Cl)c(N[C@@H]4CCC[C@@H](NS(C)(=O)=O)C4)n3)cc2CC1 (relative stereo) [Example 1379]", "result": "5.00 to 6.00"}
{"compound": "COCCNC1CCc2cc(Nc3ncc(Cl)c(Nc4ccccc4S(=O)(=O)N4CCC(O)C4)n3)c(OC)cc2CC1 (stereo not shown) [Example 1082]", "result": "> 7.00"}
{"compound": "CCN1C(=O)CCCc2c1ccc(Nc1ncc(Cl)c(Nc3ccc(N4CCN(C)CC4)cc3OC)n1)c2OC [Example 1311]", "result": "> 7.00"}
{"compound": "COCCN1CCc2ccc(Nc3ncc(Cl)c(Nc4ccccc4S(C)(=O)=O)n3)cc2CC1 [Example 1249]", "result": "> 7.00"}
